Target of assay: NIH-3T3 cells overexpressing human IGF-1R (Homo sapiens)
Protocol details: IGF-1R cellular autophosphorylation (DELFIA)
Readout: IC50

{"Test smiles": "COc1cc(N2CCOC[C@@H]2C)ccc1Nc1nc(Nc2cc(F)cc(F)c2C(N)=O)c2cc[nH]c2n1", "Target of assay": "NIH-3T3 cells overexpressing human IGF-1R (Homo sapiens)", "Reported": "< 100 nM"}

Find the measured IC50 of "CCCN(C)CC(=O)N1CCc2cc(OC)c(Nc3nc(Nc4cccc(F)c4C(N)=O)c4cc[nH]c4n3)cc21" and report it.
< 100 nM

State its IC50: "CCCN1CCC=C(c2ccc(Nc3nc(Nc4cc(Cl)ccc4C(N)=O)c4cc[nH]c4n3)c(OC)c2)C1"
100 to 500 nM

###

Target of assay: human IGF1R (hIGF1R) (Homo sapiens, UniProt P08069)
Construct: containing amino acid residues 957-1367 of human IGF1R; made in house; host or cells: Sf9 cells (baculovirus)
Sequence (P08069 957-1367): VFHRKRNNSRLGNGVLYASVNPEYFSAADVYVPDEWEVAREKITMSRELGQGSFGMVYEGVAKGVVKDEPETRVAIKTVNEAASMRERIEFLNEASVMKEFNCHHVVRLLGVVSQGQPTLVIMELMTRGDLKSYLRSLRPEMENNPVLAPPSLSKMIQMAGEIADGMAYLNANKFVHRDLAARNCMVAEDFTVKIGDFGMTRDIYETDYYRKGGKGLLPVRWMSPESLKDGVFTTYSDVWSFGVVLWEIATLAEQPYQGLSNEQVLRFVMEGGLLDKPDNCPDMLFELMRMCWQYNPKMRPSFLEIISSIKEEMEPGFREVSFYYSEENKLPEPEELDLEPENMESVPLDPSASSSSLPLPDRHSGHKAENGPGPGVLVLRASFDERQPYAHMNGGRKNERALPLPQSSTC
Protocol details: TR-FRET kinase assay of purified hIGF1R
Assay type: biochemical
Stated conditions: activated hIGF1R 0.5 nM, 10 μM ATP, values given as pIC50 category, read-out: IGF-1R pIC50 (converted)
Overview of recorded IC50 for various compounds

{"Test smiles": "COc1cc2c(cc1Nc1nc(Nc3cccc(F)c3C(N)=O)c3cc[nH]c3n1)CN(C(=O)CCN(C)C)CC2", "IC50": "5.01 to 200 nM"}
{"Test smiles": "COc1cc(N2CCC(N3CC[C@H](F)C3)CC2)ccc1Nc1nc(Nc2cc(F)ccc2C(N)=O)c2cc[nH]c2n1", "IC50": "0.251 to 1 nM"}
{"Test smiles": "COc1cc2c(cc1Nc1nc(Nc3cccc(F)c3C(N)=O)c3cc[nH]c3n1)NCCC2", "IC50": "5.01 to 200 nM"}
{"Test smiles": "CNC(=O)c1c(F)cccc1Nc1nc(Nc2cc3c(cc2OC)CCCN3C(=O)[C@@H]2CCCN2C)nc2[nH]ccc12", "IC50": "5.01 to 200 nM"}

For the compound "CNC(=O)c1c(F)cccc1Nc1nc(Nc2cc3c(cc2OC)CCN3C(C)=O)nc2[nH]ccc12" , give its reported IC50.
5.01 to 200 nM

Supply recorded IC50 for "COc1cc2c(cc1Nc1nc(Nc3cccc(F)c3C(N)=O)c3cc[nH]c3n1)CN(CCF)CC2" here.
1.26 to 3.98 nM

# return recorded IC50 for input "COc1cc2c(cc1Nc1nc(Nc3ccc(F)c(F)c3C(N)=O)c3cc[nH]c3n1)N(C(=O)CN(C)C)CCC2"
1.26 to 3.98 nM

Kindly indicate its recorded IC50. Item: "Cc1ccc(NC(=O)CN(C)C)cc1Nc1nc(Nc2ccc(Cl)cc2C(N)=O)c2cc[nH]c2n1"
1.26 to 3.98 nM

Tell me its IC50 given "CCCN1CCC=C(c2ccc(Nc3nc(Nc4cc5ccccc5cc4C(N)=O)c4cc[nH]c4n3)c(OC)c2)C1" as the entry.
1.26 to 3.98 nM

Provide IC50 value for the following compound: "CNC(=O)c1c(F)cc(Cl)cc1Nc1nc(Nc2cc3c(cc2OC)CCCN3C(=O)CN2CCCC2)nc2[nH]ccc12"
1.26 to 3.98 nM

Given the compound "COc1cc(OCCCN2CCN(C)CC2)ccc1Nc1nc(Nc2cccc(F)c2C(N)=O)c2cc[nH]c2n1" , write its reported IC50.
5.01 to 200 nM

###

Listing: IC50 of selected compounds
Target of assay: NIH-3T3 cells overexpressing human IGF-1R (Homo sapiens, UniProt P08069)
Sequence (P08069 31-1367): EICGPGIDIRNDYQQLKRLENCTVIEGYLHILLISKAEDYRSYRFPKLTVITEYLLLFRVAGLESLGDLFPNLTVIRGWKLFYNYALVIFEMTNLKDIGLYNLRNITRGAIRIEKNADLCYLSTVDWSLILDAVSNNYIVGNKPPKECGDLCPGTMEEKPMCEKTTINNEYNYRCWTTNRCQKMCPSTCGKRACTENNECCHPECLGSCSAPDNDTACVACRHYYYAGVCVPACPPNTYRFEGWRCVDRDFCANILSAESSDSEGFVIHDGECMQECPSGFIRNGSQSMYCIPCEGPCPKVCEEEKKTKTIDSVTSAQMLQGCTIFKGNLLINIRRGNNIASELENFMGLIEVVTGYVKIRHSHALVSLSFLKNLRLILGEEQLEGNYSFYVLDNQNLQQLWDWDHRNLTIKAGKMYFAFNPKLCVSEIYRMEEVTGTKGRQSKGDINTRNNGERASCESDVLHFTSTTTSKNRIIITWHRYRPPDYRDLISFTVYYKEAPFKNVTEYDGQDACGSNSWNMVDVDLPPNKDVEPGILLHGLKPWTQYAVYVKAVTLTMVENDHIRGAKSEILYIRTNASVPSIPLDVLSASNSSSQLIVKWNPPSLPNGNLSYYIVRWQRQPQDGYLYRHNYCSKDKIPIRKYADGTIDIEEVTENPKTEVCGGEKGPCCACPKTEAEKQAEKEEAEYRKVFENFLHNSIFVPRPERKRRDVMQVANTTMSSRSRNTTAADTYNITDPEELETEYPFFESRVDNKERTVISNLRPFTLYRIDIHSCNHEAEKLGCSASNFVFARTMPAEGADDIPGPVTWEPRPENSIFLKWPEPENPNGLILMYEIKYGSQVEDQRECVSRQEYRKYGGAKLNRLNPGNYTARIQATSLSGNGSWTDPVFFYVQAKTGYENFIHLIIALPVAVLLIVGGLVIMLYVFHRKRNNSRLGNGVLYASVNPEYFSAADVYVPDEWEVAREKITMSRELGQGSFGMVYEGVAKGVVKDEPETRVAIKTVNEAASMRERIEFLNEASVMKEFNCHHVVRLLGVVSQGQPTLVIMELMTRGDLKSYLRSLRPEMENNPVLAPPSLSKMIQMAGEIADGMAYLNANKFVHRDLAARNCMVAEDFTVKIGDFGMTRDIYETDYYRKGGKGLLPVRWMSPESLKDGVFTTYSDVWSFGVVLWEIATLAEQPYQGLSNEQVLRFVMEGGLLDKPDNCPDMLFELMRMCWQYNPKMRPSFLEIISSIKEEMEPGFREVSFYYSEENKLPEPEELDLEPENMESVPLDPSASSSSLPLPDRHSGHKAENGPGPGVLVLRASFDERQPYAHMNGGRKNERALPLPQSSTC
Protocol details: IGF-1R cellular autophosphorylation (DELFIA)

{"Test smiles": "COc1cc(N2CCOCC2)ccc1Nc1nc(Nc2ccccc2C(N)=O)c2cc[nH]c2n1", "Reported": "100 to 500 nM"}
{"Test smiles": "COc1cc2c(cc1Nc1nc(Nc3cccc(F)c3C(N)=O)c3cc[nH]c3n1)N(C(=O)CN1CCC1)CC2", "Reported": "100 to 500 nM"}
{"Test smiles": "COc1cc(N2CCC(N3CCCCC3)CC2)ccc1Nc1nc(Nc2cc(F)c(F)cc2C(N)=O)c2cc[nH]c2n1", "Reported": "< 100 nM"}
{"Test smiles": "COc1cc(N2CCC(O)CC2)ccc1Nc1nc(Nc2cc(F)c(F)cc2C(N)=O)c2cc[nH]c2n1", "Reported": "< 100 nM"}

Input "COc1cc(N2CCC(C3CCN(CCS(C)(=O)=O)CC3)CC2)ccc1Nc1nc(Nc2cccc(F)c2C(N)=O)c2cc[nH]c2n1" , output reported IC50.
100 to 500 nM

Given "CNC(=O)c1cc2ccccc2cc1Nc1nc(Nc2cc3c(cc2OC)CCN3C(=O)CN(C)C)nc2[nH]ccc12" , respond with its IC50.
100 to 500 nM

Could you please provide reported IC50 for "CNC(=O)c1c(F)cccc1Nc1nc(Nc2cc(N(C)C(=O)CN(C)C)c(C)cc2OC)nc2[nH]ccc12" ? Thanks!
> 500 nM

Tell me measured IC50 for "COc1cc2c(cc1Nc1nc(Nc3cccc(F)c3C(N)=O)c3cc[nH]c3n1)N(C(=O)CN(C)C)CCC2" please.
< 100 nM

Fill in reported IC50 for this entry: "CCCN1CCC=C(c2ccc(Nc3nc(Nc4ccc(C)cc4C(N)=O)c4cc[nH]c4n3)c(OC)c2)C1"
> 500 nM

Determine its reported IC50: "COc1cc(N2CCN(C(C)C)CC2)c(F)cc1Nc1nc(Nc2cccc(F)c2C(N)=O)c2cc[nH]c2n1"
100 to 500 nM

Look up and state reported IC50 for "COc1cc(N2CCN(C(C)C)CC2)ccc1Nc1nc(Nc2cc(F)ccc2C(N)=O)c2cc[nH]c2n1"
100 to 500 nM

###

The following compounds are shown together with reported IC50 values.
Target of assay: human IR (hIR) (Homo sapiens)
Construct: containing amino acid residues 979-1382 of human IR
Sequence (P06213 979-1382): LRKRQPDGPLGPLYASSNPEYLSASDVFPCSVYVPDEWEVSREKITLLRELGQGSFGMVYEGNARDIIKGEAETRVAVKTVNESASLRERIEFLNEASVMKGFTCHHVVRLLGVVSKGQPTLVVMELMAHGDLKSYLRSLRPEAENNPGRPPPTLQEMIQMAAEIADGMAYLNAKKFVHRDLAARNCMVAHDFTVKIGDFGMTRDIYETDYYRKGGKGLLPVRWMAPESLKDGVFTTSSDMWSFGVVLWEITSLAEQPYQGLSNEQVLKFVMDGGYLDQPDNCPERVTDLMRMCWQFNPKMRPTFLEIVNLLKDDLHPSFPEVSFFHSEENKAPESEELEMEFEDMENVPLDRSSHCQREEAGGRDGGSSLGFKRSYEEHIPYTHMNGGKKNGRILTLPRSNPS
Protocol details: TR-FRET kinase assay of purified hIR
Stated conditions: activated hIR 0.5 nM, 10 μM ATP, values given as pIC50 category

Solved cases below.
{"Test smiles": "COc1cc2c(cc1Nc1nc(Nc3cc(F)cc(F)c3C(=O)NCC(C)C)c3cc[nH]c3n1)N(C(=O)CN(C)C)CC2", "IC50": "1.26 to 3.98 nM"}
{"Test smiles": "CNC(=O)c1c(F)cccc1Nc1nc(Nc2cc(N(C)C(=O)CN(C)C)ccc2OC)nc2[nH]ccc12", "IC50": "5.01 to 158 nM"}
{"Test smiles": "CNC(=O)c1c(F)cccc1Nc1nc(Nc2cc3c(cc2OC)CCN3C(=O)[C@@H](C)N(C)C)nc2[nH]ccc12", "IC50": "1.26 to 3.98 nM"}
{"Test smiles": "CNC(=O)c1c(F)cccc1Nc1nc(Nc2cc3c(cc2OC)N(C(=O)CN(C)C)CC3)nc2[nH]ccc12", "IC50": "1.26 to 3.98 nM"}
{"Test smiles": "COc1cc(N2CCN(C(C)C)CC2)c(OC)cc1Nc1nc(Nc2cc(F)ccc2C(N)=O)c2cc[nH]c2n1", "IC50": "1.26 to 3.98 nM"}
{"Test smiles": "COc1cc2c(cc1Nc1nc(Nc3cc(Cl)cc(F)c3C(N)=O)c3cc[nH]c3n1)N(C(=O)CN1CCCC1)CC2", "IC50": "0.251 to 1 nM"}

Here's the next entry for you.
Answer with the recorded IC50 of "CNC(=O)c1cc2ccccc2cc1Nc1nc(Nc2cc3c(cc2OC)CCN3C(=O)CN(C)C)nc2[nH]ccc12" only.
0.251 to 1 nM

###

IC50 reference
Target of assay: human IR (hIR) (Homo sapiens)
Construct: containing amino acid residues 979-1382 of human IR; made in house; host or cells: Sf9 cells (baculovirus), same process as hIGF1R
Protocol details: TR-FRET kinase assay of purified hIR
Type: biochemical
Stated conditions: activated hIR 0.5 nM, 10 μM ATP, values given as pIC50 category

Some molecules with recorded IC50:
{"Test smiles": "COc1cc(N2CCN(CC(C)C)CC2)ccc1Nc1nc(Nc2cc(F)ccc2C(N)=O)c2cc[nH]c2n1", "Readout": "IC50", "Reported": "0.251 to 1 nM"}
{"Test smiles": "COc1ccc(OC[C@@H](O)CN(C)C)cc1Nc1nc(Nc2cc(F)ccc2C(N)=O)c2cc[nH]c2n1", "Readout": "IC50", "Reported": "0.251 to 1 nM"}
{"Test smiles": "CCCN1CCC=C(c2ccc(Nc3nc(Nc4ccc(Cl)cc4C(N)=O)c4cc[nH]c4n3)c(OC)c2)C1", "Readout": "IC50", "Reported": "0.251 to 1 nM"}
{"Test smiles": "COc1cc2c(cc1Nc1nc(Nc3cccc(F)c3C(N)=O)c3cc[nH]c3n1)N(C(=O)CN1CCCC1)CCC2(C)C", "Readout": "IC50", "Reported": "0.251 to 1 nM"}
{"Test smiles": "COc1cc2c(cc1Nc1nc(Nc3cccc(F)c3C(N)=O)c3cc[nH]c3n1)CCN2C(=O)CN(C)C", "Readout": "IC50", "Reported": "0.251 to 1 nM"}

Tell me its IC50 given "COc1cc(N2CCN(C(C)C)CC2)ccc1Nc1nc(Nc2ccc(F)c(F)c2C(N)=O)c2cc[nH]c2n1" as the entry.
1.26 to 3.98 nM

# return recorded IC50 for entry "CCCN1CCC(N2CCc3cc(OC)c(Nc4nc(Nc5cccc(F)c5C(N)=O)c5cc[nH]c5n4)cc3C2)CC1"
1.26 to 3.98 nM
